- assay_comment: Pharmacokinetics in normal rats
- measurement_setup: female, RccHan:WIST, rat, plasma, po, 6 mg/kg

{"columns": ["smiles_text", "Tmax (h)"],
 "data": [
  ["Cc1cc(N2C(=O)NC(=O)C2(C)C)cc(C)c1CCS(=O)(=O)N1CCC2(CC1)N=C(c1ccc(OC(F)(F)F)cc1)NC2=O", 1]
]}

====

- target_desc: hPTHR1-delNT (Homo sapiens, UniProt Q03431)
- Construct: HA + tetraglycine linker (YPYDVPDYA-GGGG)
- Sequence (Q03431 with tags, fused parts or gaps): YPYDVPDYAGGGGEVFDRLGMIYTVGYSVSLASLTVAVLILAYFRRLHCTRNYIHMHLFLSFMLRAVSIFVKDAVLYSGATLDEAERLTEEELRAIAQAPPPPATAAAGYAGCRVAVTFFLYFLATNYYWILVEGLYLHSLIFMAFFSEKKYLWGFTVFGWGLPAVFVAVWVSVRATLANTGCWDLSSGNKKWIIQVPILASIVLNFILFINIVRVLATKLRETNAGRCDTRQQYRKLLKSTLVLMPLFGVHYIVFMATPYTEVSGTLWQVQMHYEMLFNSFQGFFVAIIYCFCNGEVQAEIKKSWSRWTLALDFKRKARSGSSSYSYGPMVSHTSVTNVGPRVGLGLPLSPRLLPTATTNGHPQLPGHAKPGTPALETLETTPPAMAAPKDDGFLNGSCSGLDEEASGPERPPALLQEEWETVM
- assay_comment: cAMP production assay in COS-7 cells expressing hPTHR1-delNT
- measurement_setup: COS-7 cells transfected with hPTHR1-delNT
pEC50: −log10 of the molar value.

{"columns": ["smiles_text", "target_desc", "pEC50"],
 "data": [
  ["Cc1cc(N2C(=O)NC(=O)C2(C)C)cc(C)c1CCS(=O)(=O)N1CCC2(CC1)N=C(c1ccc(OC(F)(F)F)cc1)NC2=O", "hPTHR1-delNT (Homo sapiens, UniProt Q03431)", 5.60]
]}

====

- assay_comment: Pharmacokinetics in normal rats
- measurement_setup: female, RccHan:WIST, rat, plasma, po, 6 mg/kg
recorded_endpoint: AUC(0-inf) (ng·h/mL)

{"columns": ["smiles_text", "recorded_endpoint", "value"],
 "data": [
  ["Cc1cc(N2C(=O)NC(=O)C2(C)C)cc(C)c1CCS(=O)(=O)N1CCC2(CC1)N=C(c1ccc(OC(F)(F)F)cc1)NC2=O", "AUC(0-inf)", 2360]
]}

====

- assay_comment: Pharmacokinetics in TPTX rats
- Type: in vivo, rat
- measurement_setup: female, Crl:CD(SD), rat, plasma, po, p.o. 6 mg kg-1

{"columns": ["smiles_text", "half-life"],
 "data": [
  ["Cc1cc(N2C(=O)NC(=O)C2(C)C)cc(C)c1CCS(=O)(=O)N1CCC2(CC1)N=C(c1ccc(OC(F)(F)F)cc1)NC2=O", "4.9 h"]
]}

====

- assay_comment: Pharmacokinetics in OVX rats
- Format: in vivo
- measurement_setup: female, Crl:CD(SD), rat, plasma, iv, i.v. 3 mg kg-1
recorded_endpoint: AUC (ng·h/mL)

{"columns": ["smiles_text", "reading_unit", "value"],
 "data": [
  ["Cc1cc(N2C(=O)NC(=O)C2(C)C)cc(C)c1CCS(=O)(=O)N1CCC2(CC1)N=C(c1ccc(OC(F)(F)F)cc1)NC2=O", "ng·h/mL", 15500]
]}

====

- assay_comment: Pharmacokinetics in TPTX rats
- Format: in vivo, rat
- measurement_setup: female, Crl:CD(SD), rat, plasma, po, p.o. 2 mg kg-1, read-out: AUC

{"columns": ["compound", "AUC [ng·h/mL]"],
 "data": [
  ["Cc1cc(N2C(=O)NC(=O)C2(C)C)cc(C)c1CCS(=O)(=O)N1CCC2(CC1)N=C(c1ccc(OC(F)(F)F)cc1)NC2=O [PCO371]", 464]
]}

====

- assay_comment: Pharmacokinetics in TPTX rats
- Format: in vivo, rat
- measurement_setup: female, Crl:CD(SD), rat, plasma, po, p.o. 18 mg kg-1, read-out: Cmax
recorded_endpoint: Cmax

{"columns": ["smiles_text", "recorded_endpoint", "value"],
 "data": [
  ["Cc1cc(N2C(=O)NC(=O)C2(C)C)cc(C)c1CCS(=O)(=O)N1CCC2(CC1)N=C(c1ccc(OC(F)(F)F)cc1)NC2=O", "Cmax", "1630 ng/mL"]
]}

====

- assay_comment: Pharmacokinetics in normal rats
- measurement_setup: female, RccHan:WIST, rat, plasma, po, 2 mg/kg

{"columns": ["smiles_text", "half-life, h"],
 "data": [
  ["Cc1cc(N2C(=O)NC(=O)C2(C)C)cc(C)c1CCS(=O)(=O)N1CCC2(CC1)N=C(c1ccc(OC(F)(F)F)cc1)NC2=O", 1.5]
]}
